src = patent US20200399243A1

Listed next: entries and their corresponding pIC50.
SYSTEM_NAME: NLRP3 (Homo sapiens)
Construct: Seed THP-1 cells (25,000 cells/well) containing 1.0 μg/ml LPS in 40 μl of RPMI medium
Sequence (Q96P20 whole entry): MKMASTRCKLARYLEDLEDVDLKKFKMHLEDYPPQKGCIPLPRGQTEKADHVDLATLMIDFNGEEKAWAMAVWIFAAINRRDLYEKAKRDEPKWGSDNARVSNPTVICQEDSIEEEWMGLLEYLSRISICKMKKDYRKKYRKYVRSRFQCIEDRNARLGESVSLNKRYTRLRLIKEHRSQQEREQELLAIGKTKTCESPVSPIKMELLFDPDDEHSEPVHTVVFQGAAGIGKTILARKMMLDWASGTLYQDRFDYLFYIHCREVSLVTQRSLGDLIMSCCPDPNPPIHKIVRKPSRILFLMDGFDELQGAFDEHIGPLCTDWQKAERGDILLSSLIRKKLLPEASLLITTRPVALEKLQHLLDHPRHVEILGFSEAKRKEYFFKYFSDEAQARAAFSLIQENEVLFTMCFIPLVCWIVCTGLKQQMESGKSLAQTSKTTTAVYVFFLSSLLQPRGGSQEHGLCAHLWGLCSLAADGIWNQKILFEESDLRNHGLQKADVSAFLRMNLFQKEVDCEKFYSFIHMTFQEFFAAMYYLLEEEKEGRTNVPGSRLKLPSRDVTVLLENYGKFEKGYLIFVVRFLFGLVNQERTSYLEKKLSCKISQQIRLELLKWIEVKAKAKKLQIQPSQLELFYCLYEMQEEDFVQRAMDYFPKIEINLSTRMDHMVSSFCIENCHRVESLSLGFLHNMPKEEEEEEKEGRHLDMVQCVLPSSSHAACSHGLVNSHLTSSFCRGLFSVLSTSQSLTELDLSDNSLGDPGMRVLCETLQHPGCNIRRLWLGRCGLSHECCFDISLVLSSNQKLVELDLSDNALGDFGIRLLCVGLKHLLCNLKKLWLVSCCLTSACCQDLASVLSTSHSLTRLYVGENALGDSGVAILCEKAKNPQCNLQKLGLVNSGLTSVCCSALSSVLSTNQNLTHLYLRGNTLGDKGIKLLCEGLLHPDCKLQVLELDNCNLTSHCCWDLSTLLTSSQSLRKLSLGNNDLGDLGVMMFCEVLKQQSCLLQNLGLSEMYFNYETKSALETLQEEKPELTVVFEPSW
MEASUREMENT_PROTOCOL: THP-1 cells pyroptosis assay
EXPERIMENTAL_CONTEXT: 1.0 μg/ml LPS, compound 3 hrs, nigericin 5 μM 1 hr, resazurin readout
pIC50: −log10 of the molar value. Where a name gives a salt, the structure may show the parent alone.

CC(C)c1cc(F)cc(-c2ccncc2)c1CC(=O)NS(=O)(=O)c1cc(C(=O)N(C)C)n(C)n1 [Example 6, potassium salt] :: 5.30 to 6.00
CN(C)CC(C)(C)n1ccc(S(=O)(=O)NC(=O)Cc2c3c(cc4c2CCC4)CCC3)n1 :: 5.00 to 5.30
CC(C)c1cc(F)cc(-c2ccncc2)c1CC(=O)NS(=O)(=O)c1ccn(C(C)(C)CN(C)C)n1 [Example 7, potassium salt] :: 5.30 to 6.00

Then there is this compound:
Prompt: # pIC50 lookup, item COc1cc(-c2ccc3c(c2CC(=O)NS(=O)(=O)c2cc(C(=O)N(C)C)n(C)n2)CCC3)ccn1
Response: 5.00 to 5.30
